Biological target: Matrix metalloproteinase-14 (Homo sapiens)
Assay: Inhibition of human recombinant MMP14
observable: IC50 (µM)
Give the quantity in µM, number only.

Guide cases for IC50, answers given:
{"smiles_string": "CC(C)ON(CC(=O)NO)S(=O)(=O)c1ccc(/C=C/c2ccc(-c3ccccc3)cc2)cc1", "measurement_target": "Matrix metalloproteinase-14 (Homo sapiens)", "IC50 [µM]": 2.8}
{"smiles_string": "CCCCc1ccc(C#Cc2ccc(S(=O)(=O)N(CC(=O)NO)OC(C)C)s2)cc1", "measurement_target": "Matrix metalloproteinase-14 (Homo sapiens)", "IC50 [µM]": 11}
{"smiles_string": "CSc1ccc(-c2ccc(S(=O)(=O)N(CC(=O)NO)OC(C)C)cc2)cc1", "measurement_target": "Matrix metalloproteinase-14 (Homo sapiens)", "IC50 [µM]": 0.32}

State its IC50: `CCc1ccc(-c2ccc(S(=O)(=O)N(CC(=O)NO)OC(C)C)s2)cc1` 2.4

Read the entry `CC(C)ON(CC(=O)NO)S(=O)(=O)c1ccc(Oc2ccccc2)cc1` and write its reported IC50. 0.59

In one line, give reported IC50 of the entry `COc1ccc(-c2ccc(S(=O)(=O)N(CC(=O)NO)OC(C)C)cc2)cc1` . 1

Complete the entry with IC50 for `CC(C)ON([C@@H](C(=O)NO)C(C)C)S(=O)(=O)c1ccc(-c2ccc(OCc3ccc(Cl)cc3)cc2)cc1` 14

Provide one value: measured IC50 of `CC(C)ON(CC(=O)NO)S(=O)(=O)c1ccc(-c2ccc(OCc3ccc(Cl)cc3)cc2)cc1` 3.4

For `CCCCOc1ccc(-c2ccc(S(=O)(=O)N(CC(=O)NO)OC(C)C)cc2)cc1` , write its IC50. 5.5

====

// reported IC50 per item
Target: Interstitial collagenase (Homo sapiens, UniProt P03956)
Sequence (P03956 whole entry): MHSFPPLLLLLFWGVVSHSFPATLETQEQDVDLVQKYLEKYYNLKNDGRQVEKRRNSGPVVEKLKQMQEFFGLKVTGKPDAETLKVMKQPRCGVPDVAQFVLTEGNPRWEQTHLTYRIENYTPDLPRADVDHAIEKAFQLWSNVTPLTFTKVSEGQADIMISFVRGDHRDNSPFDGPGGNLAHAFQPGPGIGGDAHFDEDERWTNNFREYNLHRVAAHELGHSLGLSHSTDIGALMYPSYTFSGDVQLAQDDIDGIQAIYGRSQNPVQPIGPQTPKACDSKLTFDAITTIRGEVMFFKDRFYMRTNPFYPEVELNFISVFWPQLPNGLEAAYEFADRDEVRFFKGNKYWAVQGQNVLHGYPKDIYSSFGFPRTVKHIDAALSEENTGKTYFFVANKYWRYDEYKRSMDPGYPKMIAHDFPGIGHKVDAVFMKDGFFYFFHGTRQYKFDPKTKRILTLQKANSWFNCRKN
Assay: Inhibition of MMP1-mediated collagen degradation by SDS-PAGE

Here is how some compounds turned out for IC50.
{"smiles_string": "CC(C)CN(CC(=O)NO)S(=O)(=O)c1ccc(-c2ccccc2)cc1", "measurement_target": "Interstitial collagenase (Homo sapiens, UniProt P03956)", "reported": "4.1 µM"}
{"smiles_string": "CC(C)ON([C@@H](C(=O)NO)C(C)C)S(=O)(=O)c1ccc(-c2ccc(OCc3ccc(Cl)cc3)cc2)cc1", "measurement_target": "Interstitial collagenase (Homo sapiens, UniProt P03956)", "reported": "15 µM"}
{"smiles_string": "O=C(CNS(=O)(=O)c1ccc(-c2ccccc2)cc1)NO", "measurement_target": "Interstitial collagenase (Homo sapiens, UniProt P03956)", "reported": "0.97 µM"}

Now examine the next entry.
Return value of IC50 for input `CC(C)ON(CC(=O)NO)S(=O)(=O)c1ccc(-c2ccccc2)cc1` , no commentary. 2.9 µM

====

Below, each entry is listed alongside its reported log10 of IC50.
Biological target: UniProt P14780
Sequence (P14780 whole entry): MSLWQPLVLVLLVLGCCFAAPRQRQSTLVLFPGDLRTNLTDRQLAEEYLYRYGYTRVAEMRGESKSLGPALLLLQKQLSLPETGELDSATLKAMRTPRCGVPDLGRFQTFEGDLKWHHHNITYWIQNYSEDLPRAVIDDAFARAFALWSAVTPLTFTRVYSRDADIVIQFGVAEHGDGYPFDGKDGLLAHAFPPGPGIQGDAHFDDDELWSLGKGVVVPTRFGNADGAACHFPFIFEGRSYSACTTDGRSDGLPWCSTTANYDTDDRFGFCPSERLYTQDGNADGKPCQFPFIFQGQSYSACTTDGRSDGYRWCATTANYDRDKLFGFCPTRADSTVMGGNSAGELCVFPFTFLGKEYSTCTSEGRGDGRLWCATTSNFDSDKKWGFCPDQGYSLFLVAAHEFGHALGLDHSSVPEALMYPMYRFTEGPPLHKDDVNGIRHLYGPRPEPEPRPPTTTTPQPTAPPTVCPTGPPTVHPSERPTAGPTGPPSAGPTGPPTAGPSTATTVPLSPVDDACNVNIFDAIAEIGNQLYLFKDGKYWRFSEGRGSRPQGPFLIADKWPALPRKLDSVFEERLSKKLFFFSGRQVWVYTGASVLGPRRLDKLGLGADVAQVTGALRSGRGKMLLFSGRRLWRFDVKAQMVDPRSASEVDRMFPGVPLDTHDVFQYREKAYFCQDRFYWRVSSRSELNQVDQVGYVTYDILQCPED
Experiment: Inhibition of MMP9
In plain terms, each number is the log10 of measured IC50 in nM.

Look over these answered cases.
{"smiles_string": "CC(C)ON([C@@H](C(=O)NO)C(C)C)S(=O)(=O)c1ccc(-c2ccc(OCc3ccc(Cl)cc3)cc2)cc1", "reported": 1.84}
{"smiles_string": "COc1ccc(-c2ccc(S(=O)(=O)N(CC(=O)NO)OC(C)C)s2)cc1", "reported": 2.40}
{"smiles_string": "CC(C)ON(CC(=O)NO)S(=O)(=O)c1ccc(Oc2ccccc2)cc1", "reported": 2.04}

Report its log10 of IC50 with UniProt P14780 as the test system: `CC(C)ON(CC(=O)NO)S(=O)(=O)c1ccc(-c2ccc(OCc3ccc(Cl)cc3)cc2)cc1` 3.04

Fetch value of log10 of IC50 on UniProt P14780 for `CC(C)ON(CC(=O)NO)S(=O)(=O)c1ccc(/C=C/c2ccc(-c3ccccc3)cc2)cc1` . 3.36

Write down measured log10 of IC50 (UniProt P14780) for this molecule. `CCCCOc1ccc(-c2ccc(S(=O)(=O)N(CC(=O)NO)OC(C)C)cc2)cc1` 1.64

Tell me log10 of IC50 of `CCCCc1ccc(C#Cc2ccc(S(=O)(=O)N(CC(=O)NO)OC(C)C)s2)cc1` when tested on UniProt P14780. 3.64

Using UniProt P14780 as the test system, report measured log10 of IC50 of `CCc1ccc(-c2ccc(S(=O)(=O)N(CC(=O)NO)OC(C)C)s2)cc1` . 2.83

====

Target: Matrix metalloproteinase-16 (Homo sapiens, UniProt P51512)
Assay: Inhibition of human recombinant MMP16
observable: pIC50
Entry type: numeric. Quantity: pIC50, the -log10 of concentration in molar units.

# return recorded pIC50 for input `CC(C)ON(CC(=O)NO)S(=O)(=O)c1ccc(-c2ccc(OCc3ccc(Cl)cc3)cc2)cc1` 4.82

Supply measured pIC50 of `CC(C)ON(CC(=O)NO)S(=O)(=O)c1ccc(-c2ccccc2)cc1` in your reply. 6.05

Return value of pIC50 for input `CC(C)ON([C@@H](C(=O)NO)C(C)C)S(=O)(=O)c1ccc(-c2ccc(OCc3ccc(Cl)cc3)cc2)cc1` , no commentary. 5.30

====

Biological target: Interstitial collagenase (Homo sapiens, UniProt P03956)
Assay: Inhibition of MMP1
The following compounds are listed with their measured pIC50 values.
# pIC50: negative log10 of molar concentration; output just the value

Enter recorded pIC50 with Interstitial collagenase (Homo sapiens, UniProt P03956) for `COc1ccc(-c2ccc(S(=O)(=O)N(CC(=O)NO)OC(C)C)cc2)cc1` here. 4.89

Would you please give the reported pIC50 of `CCCCOc1ccc(-c2ccc(S(=O)(=O)N(CC(=O)NO)OC(C)C)cc2)cc1` with Interstitial collagenase (Homo sapiens, UniProt P03956)? 4.96

For Interstitial collagenase (Homo sapiens, UniProt P03956), give pIC50 of the listed compound: `CC(C)CN(CC(=O)NO)S(=O)(=O)c1ccc(-c2ccccc2)cc1` 5.32

For Interstitial collagenase (Homo sapiens, UniProt P03956), give the measured pIC50 of the entry `CC(C)ON(CC(=O)NO)S(=O)(=O)c1ccc(Oc2ccccc2)cc1` 4.23

====

Target: Neutrophil collagenase (Homo sapiens)
Sequence (P22894 whole entry): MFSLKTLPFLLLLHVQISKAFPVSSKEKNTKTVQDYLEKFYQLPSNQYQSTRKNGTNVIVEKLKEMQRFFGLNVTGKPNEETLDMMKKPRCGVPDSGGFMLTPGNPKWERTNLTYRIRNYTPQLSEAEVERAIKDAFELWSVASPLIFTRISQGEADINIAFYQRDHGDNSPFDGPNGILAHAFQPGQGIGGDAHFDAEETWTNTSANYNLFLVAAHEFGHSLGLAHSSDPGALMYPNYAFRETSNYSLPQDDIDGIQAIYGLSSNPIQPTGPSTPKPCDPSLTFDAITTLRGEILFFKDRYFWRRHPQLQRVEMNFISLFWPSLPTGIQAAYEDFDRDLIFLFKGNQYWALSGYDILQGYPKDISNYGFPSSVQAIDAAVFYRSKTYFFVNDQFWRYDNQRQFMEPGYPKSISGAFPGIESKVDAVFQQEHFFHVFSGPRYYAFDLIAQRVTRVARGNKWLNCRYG
Assay: Inhibition of MMP8
pIC50: −log10 of the molar value.
Class 1: pIC50 at least 7. Class 0: pIC50 below 7.

Worked cases, answers included:
{"smiles_string": "CC(C)CN(CC(=O)NO)S(=O)(=O)c1ccc(-c2ccccc2)cc1", "assigned_category": 1}
{"smiles_string": "CC(C)ON(CC(=O)NO)S(=O)(=O)c1ccc(-c2ccc(F)cc2)s1", "assigned_category": 0}

Shift focus to the following entry.
pIC50 >= 7 for `O=C(CNS(=O)(=O)c1ccc(-c2ccccc2)cc1)NO` ? 1

====

Biological target: 72 kDa type IV collagenase (Homo sapiens)
Sequence (P08253 whole entry): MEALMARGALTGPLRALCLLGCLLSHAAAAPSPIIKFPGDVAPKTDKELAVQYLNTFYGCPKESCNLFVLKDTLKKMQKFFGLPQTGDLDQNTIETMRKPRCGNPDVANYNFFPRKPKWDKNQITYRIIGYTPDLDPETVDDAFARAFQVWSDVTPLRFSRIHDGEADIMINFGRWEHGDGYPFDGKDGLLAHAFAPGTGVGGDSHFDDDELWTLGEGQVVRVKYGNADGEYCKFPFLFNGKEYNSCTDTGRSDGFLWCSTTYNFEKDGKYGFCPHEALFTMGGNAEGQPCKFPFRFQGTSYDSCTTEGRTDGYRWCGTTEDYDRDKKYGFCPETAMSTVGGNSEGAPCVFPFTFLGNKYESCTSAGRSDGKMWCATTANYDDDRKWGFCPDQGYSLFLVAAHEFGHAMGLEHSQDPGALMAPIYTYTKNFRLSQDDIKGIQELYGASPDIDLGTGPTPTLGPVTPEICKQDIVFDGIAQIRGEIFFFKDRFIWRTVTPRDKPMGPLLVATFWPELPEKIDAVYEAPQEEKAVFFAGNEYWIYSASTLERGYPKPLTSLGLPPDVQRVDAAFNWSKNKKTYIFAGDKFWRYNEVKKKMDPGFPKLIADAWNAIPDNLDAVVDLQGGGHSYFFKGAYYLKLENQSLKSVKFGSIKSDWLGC
Listed compounds paired with reported Ki
The figure you give is taken to be in nM; do not add the unit.

{"smiles_string": "CC(C)ON([C@@H](C(=O)NO)C(C)C)S(=O)(=O)c1ccc(-c2ccc(OCc3ccc(Cl)cc3)cc2)cc1", "observable": "Ki", "reported": 54}

Now, please, on to the next compound.
# return recorded Ki for entry `CC(C)ON(CC(=O)NO)S(=O)(=O)c1ccc(-c2ccccc2)cc1` 13

====

Target: Matrix metalloproteinase-14 (Homo sapiens)
Assay: Inhibition of human recombinant MMP14
observable: pIC50
// pIC50: -log10(molar conc.)

Below: 3 compounds and their reported pIC50.
{"smiles_string": "O=C(CNS(=O)(=O)c1ccc(-c2ccccc2)cc1)NO", "reported": 7.15}
{"smiles_string": "CC(C)ON(CC(=O)NO)S(=O)(=O)c1ccc(-c2ccccc2)cc1", "reported": 5.64}
{"smiles_string": "CC(C)CN(CC(=O)NO)S(=O)(=O)c1ccc(-c2ccccc2)cc1", "reported": 6.28}

Quick one: give measured pIC50 for `CC(C)ON(CC(=O)NO)S(=O)(=O)c1ccc(-c2ccc(F)cc2)s1` 5.19

====

This listing pairs molecules with measured IC50.
Target: Interstitial collagenase (Homo sapiens)
Assay: Inhibition of MMP1
Give a bare numeral; the unit µM is implied.

Examples with answers:
{"smiles_string": "O=C(CNS(=O)(=O)c1ccc(-c2ccccc2)cc1)NO", "reported": 0.61}
{"smiles_string": "CCCCc1ccc(C#Cc2ccc(S(=O)(=O)N(CC(=O)NO)OC(C)C)s2)cc1", "reported": 13}
{"smiles_string": "CC(C)ON([C@@H](C(=O)NO)C(C)C)S(=O)(=O)c1ccc(-c2ccc(OCc3ccc(Cl)cc3)cc2)cc1", "reported": 48}
{"smiles_string": "CC(C)ON(CC(=O)NO)S(=O)(=O)c1ccc(-c2ccccc2)cc1", "reported": 12}

Now for the molecule whose IC50 we want.
Output IC50 of `CC(C)ON(CC(=O)NO)S(=O)(=O)c1ccc(-c2ccc(OCc3ccc(Cl)cc3)cc2)cc1` 13
